Tested on: TLR7/8
ASSAY: Cytokine induction in human PBMCs by immunostimulatory RNA, alone or co-formulated with modified ssRNA in the same SNALP/lipid particle
Assay type: cell-based
COND: human PBMCs; equimolar amounts in the same SNALP; 24 h
m = 2'-O-methyl; r = 2'-OH (RNA)
REPORTED_METRIC: IFN-α levels induced by β-gal antisense ssRNA when co-encapsulated

SUBSTANCE | RESULT
polyUmod10: 2′OMe-uridine homopolymer of 10 nucleotides in length (UUUUUUUUUU; all 2'-O-methyl, backbone not given here) | significantly reduced
polyUmod21: 2′OMe-uridine homopolymer of 21 nucleotides in length (UUUUUUUUUUUUUUUUUUUUU; all 2'-O-methyl, backbone not given here) | significantly reduced
polyUmod15: 2′OMe-uridine homopolymer of 15 nucleotides in length (UUUUUUUUUUUUUUU; all 2'-O-methyl, backbone not given here) | significantly reduced
NP1496 UmodS: influenza NP1496 sense strand ssRNA with 2′OMe uridines: GGAmUCmUmUAmUmUmUCmUmUCGGAGUU (sense GGAUCUUAUUUCUUCGGAGUU; sugars from the 5' end rrrmrmmrmmmrmmrrrrrrr, backbone not given here) | abrogated
Luc UmodS: Luc sense strand ssRNA with 2′OMe at uridines: GAmUmUAmUGmUCCGGmUmUAmUGmUAUU (sense GAUUAUGUCCGGUUAUGUAUU; sugars from the 5' end rrmmrmrmrrrrmmrmrmrrr, backbone not given here) | abrogated
